# Test system: Male Zucker Diabetic Fatty rats
# experiment: In vivo evaluation: serum glucose in Zucker Diabetic Fatty rats
# Design: species or system rat
# experimental-context: 10 mg/kg once daily by oral gavage, 28 days, percent reduction from vehicle control at day 28 relative to normalization (140 mg/dL)
The threshold is 80%. Values of % Glucose Reduction beneath it are tagged 1; values meeting or exceeding it are tagged 0.

1) COCCOc1cc(Cn2c(C(=O)O)c(-c3ccc(C(C)(C)C)cc3)c3ccccc32)cc(N2CCOCC2)c1	0
2) Cc1ccc(-c2ccc(C(=O)O)cc2)cc1Cn1c(C(=O)O)c(-c2ccc(C(C)(C)C)cc2)c2ccccc21	1
3) COCCOc1cc(Cn2c(C(=O)O)c(-c3ccc(C(C)(C)C)cc3)c3ccccc32)cc(OCC2CC2)c1	0
4) COc1cc(Cn2c(C(=O)O)c(-c3ccc(C(C)(C)C)cc3)c3ccccc32)cc(-c2ccc(C(=O)O)cc2)c1	1
